# maps each entry to its pKi
Target: human GlyT1c transporter (Homo sapiens (Human))
Sequence (P48067 whole entry): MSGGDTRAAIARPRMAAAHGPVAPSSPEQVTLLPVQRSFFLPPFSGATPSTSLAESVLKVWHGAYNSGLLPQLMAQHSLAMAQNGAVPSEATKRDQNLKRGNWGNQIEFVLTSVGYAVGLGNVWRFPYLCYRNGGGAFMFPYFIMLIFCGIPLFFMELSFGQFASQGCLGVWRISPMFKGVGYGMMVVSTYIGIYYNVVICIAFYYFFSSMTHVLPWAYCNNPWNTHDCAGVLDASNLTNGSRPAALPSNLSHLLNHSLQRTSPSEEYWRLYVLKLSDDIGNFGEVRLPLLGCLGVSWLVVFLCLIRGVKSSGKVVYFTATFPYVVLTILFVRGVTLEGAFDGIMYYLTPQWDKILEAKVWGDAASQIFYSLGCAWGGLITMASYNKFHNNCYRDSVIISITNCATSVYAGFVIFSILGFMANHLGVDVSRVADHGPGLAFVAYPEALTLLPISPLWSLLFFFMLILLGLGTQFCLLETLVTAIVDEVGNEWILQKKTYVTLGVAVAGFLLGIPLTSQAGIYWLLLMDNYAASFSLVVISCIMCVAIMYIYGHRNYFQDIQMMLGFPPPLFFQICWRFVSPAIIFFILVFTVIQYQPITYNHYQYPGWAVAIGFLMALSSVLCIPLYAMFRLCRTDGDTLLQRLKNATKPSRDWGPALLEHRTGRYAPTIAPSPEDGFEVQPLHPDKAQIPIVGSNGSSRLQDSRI
Assay: Radioligand binding assay using recombinant CHO cell membranes expressing human GlyT1
Conditions: examples 88-204, radioligand not specified by footnote, read-out: radioligand binding Kiapp
pKi: −log10 of the molar value. Where a name gives a salt, the structure may show the parent alone.

Below, 5 compounds whose answers are already recorded.
CCCS(=O)(=O)NCCOc1ccc2c(c1)C(C(C)c1ccc(Cl)cc1)NCC2 (centres unmarked) [Example 145, hydrochloride]
≥ 7.00
Nc1ncc(S(=O)(=O)NCCOc2ccc3c(c2)C(C2(c4ccc(Cl)cc4)CCC2)NCC3)cn1 (centres unmarked)
≥ 7.00
CC(C)(O)CS(=O)(=O)NCCOc1ccc2c(c1)C(C1(c3ccc(Cl)cc3)CCC1)NCC2 (centres unmarked) [Example 103, hydrochloride]
≥ 7.00
CC(C)(C)NS(=O)(=O)CCCOc1ccc2c(c1)C(C1(c3ccc(Cl)cc3)CCC1)NCC2 (centres unmarked) [Example 118, hydrochloride]
≥ 6.00
COc1ccccc1NS(=O)(=O)CCCOc1ccc2c(c1)C(C1(c3ccc(Cl)cc3)CCC1)NCC2 (centres unmarked) [Example 121, hydrochloride]
≥ 5.00

Query: Write down the reported pKi of Nc1ccc(S(=O)(=O)NCCOc2ccc3c(c2)C(C2(c4ccc(Cl)cc4)CCC2)NCC3)cn1 (centres unmarked) , test system: human GlyT1c transporter (Homo sapiens (Human)).
Reply: ≥ 6.00

Query: Write down the reported pKi of CNCCCS(=O)(=O)NCCOc1ccc2c(c1)C(C1(c3ccc(Cl)cc3)CCC1)NCC2 (centres unmarked) , test system: human GlyT1c transporter (Homo sapiens (Human)).
Reply: ≥ 5.00

Query: Write down the reported pKi of CCCS(=O)(=O)NCCOc1ccc2c(c1)C(C1(c3cccc(Cl)n3)CCC1)NCC2 (centres unmarked) [Example 105, dihydrochloride] , test system: human GlyT1c transporter (Homo sapiens (Human)).
Reply: ≥ 7.00

Query: Write down the reported pKi of O=S(=O)(NCCOc1ccc2c(c1)C(C1(c3cccc(F)c3)CCC1)NCC2)c1cccs1 (centres unmarked) [Example 106, hydrochloride] , test system: human GlyT1c transporter (Homo sapiens (Human)).
Reply: ≥ 6.00

Source of measurements: patent US8653100B2
